Tgt: rat brain N-type calcium channel subunits (α1B+α2δ+β1b cDNA subunits) (Rattus norvegicus)
Construct: expressed in transfected cells; host or cells: HEK 293
Sequence (Q02294 whole entry): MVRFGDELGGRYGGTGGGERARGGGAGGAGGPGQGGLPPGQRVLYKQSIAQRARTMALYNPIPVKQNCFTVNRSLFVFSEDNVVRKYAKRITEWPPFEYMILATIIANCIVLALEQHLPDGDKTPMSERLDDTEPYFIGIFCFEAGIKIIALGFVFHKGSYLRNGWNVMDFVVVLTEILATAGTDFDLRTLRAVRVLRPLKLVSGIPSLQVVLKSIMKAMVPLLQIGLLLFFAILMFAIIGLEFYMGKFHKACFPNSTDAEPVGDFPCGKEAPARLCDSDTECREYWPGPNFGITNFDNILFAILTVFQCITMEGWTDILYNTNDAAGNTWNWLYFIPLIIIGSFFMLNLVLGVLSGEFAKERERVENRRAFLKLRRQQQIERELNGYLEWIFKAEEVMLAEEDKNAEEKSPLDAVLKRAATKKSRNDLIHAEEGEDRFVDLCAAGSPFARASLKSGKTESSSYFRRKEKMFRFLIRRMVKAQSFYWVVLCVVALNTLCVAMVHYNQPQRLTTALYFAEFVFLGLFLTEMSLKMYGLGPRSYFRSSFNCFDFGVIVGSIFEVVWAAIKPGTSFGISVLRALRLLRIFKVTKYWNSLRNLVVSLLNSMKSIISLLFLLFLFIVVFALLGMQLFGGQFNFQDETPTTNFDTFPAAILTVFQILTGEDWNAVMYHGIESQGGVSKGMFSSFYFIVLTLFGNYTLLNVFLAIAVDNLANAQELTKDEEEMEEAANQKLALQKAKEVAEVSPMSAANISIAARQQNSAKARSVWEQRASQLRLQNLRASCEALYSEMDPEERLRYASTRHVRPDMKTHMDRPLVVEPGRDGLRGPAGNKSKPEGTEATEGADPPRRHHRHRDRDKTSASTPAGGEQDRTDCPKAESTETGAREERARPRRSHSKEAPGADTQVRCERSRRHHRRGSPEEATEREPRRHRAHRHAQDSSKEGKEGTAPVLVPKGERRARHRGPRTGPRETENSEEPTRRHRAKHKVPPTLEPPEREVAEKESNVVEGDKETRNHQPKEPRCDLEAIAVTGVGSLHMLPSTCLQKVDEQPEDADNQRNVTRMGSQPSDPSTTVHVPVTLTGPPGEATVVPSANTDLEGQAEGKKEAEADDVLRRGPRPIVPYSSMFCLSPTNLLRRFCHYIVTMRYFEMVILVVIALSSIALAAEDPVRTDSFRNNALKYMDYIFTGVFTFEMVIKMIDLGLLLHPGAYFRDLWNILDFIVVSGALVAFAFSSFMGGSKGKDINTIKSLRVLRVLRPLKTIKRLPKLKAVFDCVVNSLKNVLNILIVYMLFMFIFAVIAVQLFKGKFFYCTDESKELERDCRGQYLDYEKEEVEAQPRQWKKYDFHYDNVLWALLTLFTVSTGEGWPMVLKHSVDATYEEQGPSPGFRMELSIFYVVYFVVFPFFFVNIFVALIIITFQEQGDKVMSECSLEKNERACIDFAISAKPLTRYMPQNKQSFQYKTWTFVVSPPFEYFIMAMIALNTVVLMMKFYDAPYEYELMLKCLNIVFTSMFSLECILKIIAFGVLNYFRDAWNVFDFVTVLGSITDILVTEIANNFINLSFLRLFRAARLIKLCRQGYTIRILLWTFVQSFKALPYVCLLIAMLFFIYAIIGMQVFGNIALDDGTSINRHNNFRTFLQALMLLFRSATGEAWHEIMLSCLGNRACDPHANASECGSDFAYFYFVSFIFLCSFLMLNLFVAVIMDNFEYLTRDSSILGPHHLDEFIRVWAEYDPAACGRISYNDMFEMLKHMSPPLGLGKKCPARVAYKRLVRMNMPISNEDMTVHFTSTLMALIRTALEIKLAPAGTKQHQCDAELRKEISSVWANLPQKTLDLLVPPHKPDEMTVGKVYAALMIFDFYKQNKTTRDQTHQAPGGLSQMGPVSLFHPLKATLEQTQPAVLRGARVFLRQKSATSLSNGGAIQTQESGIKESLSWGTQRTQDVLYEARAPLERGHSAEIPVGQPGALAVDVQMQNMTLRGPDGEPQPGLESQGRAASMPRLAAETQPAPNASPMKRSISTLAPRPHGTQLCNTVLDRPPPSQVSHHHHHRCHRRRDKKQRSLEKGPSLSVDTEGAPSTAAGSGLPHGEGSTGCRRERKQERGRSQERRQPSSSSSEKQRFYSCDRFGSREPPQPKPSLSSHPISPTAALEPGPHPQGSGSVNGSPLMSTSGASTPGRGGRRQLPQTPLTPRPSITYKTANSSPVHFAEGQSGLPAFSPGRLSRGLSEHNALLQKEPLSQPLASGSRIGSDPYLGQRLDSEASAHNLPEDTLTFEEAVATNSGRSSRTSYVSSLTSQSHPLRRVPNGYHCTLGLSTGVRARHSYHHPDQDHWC
Assay: N-type calcium channel block, whole cell patch clamp in HEK 293 cells
Assay type: cell-based
Conditions used: low frequency stimulation 0.067 Hz (tonic block); holding potential −80 mV to +10 mV; read-out: IC50 @ 0.067 Hz
Value kind: pIC50
Scale for pIC50: -log10 of concentration given in mol/L; no unit attached.

Sample `O=C(CCCCC(c1ccc(F)cc1)c1ccc(F)cc1)NC/C=C\CNC(=O)COc1ccc(Cl)cc1` — what was its pIC50?
7.24

`CC(C)c1ccc(C(=O)NC/C=C\CNC(=O)CCCCC(c2ccc(F)cc2)c2ccc(F)cc2)cc1` , same question.
7.01
